The reported numbers originate from patent EP4635958A1.

test: Pharmacokinetic determination in rats (IV and PO, plasma, LCMS/MS); format: in vivo, SD rats; conditions: PO 30 mg/kg vs IV 1 mg/kg, male SD rats
Tick Condition met if F is 7% or greater. Tick Condition not met if F is less than 7%.

Reference set (4 entries):
| molecule | class.label |
| --- | --- |
| C#Cc1c(F)ccc2cc(O)cc(-c3nc4c5c(nc(OCC6(CN7CCC(=CF)CC7)CC6)nc5c3F)N3C[C@H]5CC[C@H](N5)[C@H]3[C@H](CC)O4)c12 [Example 137] | Condition met |
| C#Cc1c(F)ccc2cc(O)cc(-c3nc4c5c(nc(OCC6(CN7CCC(=C(F)F)CC7)CC6)nc5c3F)N3C[C@H]5CC[C@H](N5)[C@H]3CO4)c12 [Example 1-1] | Condition not met |
| [2H]C([2H])([2H])[C@@H]1Oc2nc(-c3cc(N)cc(Cl)c3C(F)(F)F)c(F)c3nc(OCC4(CN5CCC(=NOC)CC5)CC4)nc(c23)N2C[C@H]3CC[C@H](N3)[C@@H]12 [Example 339] | Condition not met |
| CC[C@@H]1Oc2nc(-c3cc(N)cc(Cl)c3C(F)(F)F)c(F)c3nc(OCC4(CN5CCC(=CF)CC5)CC4)nc(c23)N2C[C@@H]3CC[C@@H](N3)[C@@H]12 [Example 322] | Condition met |

input: Quick check: does C#Cc1c(F)ccc2cc(O)cc(-c3nc4c5c(nc(OCC6(CN7CCC(=CF)CC7)CC6)nc5c3F)N3C[C@H]5CC[C@H](N5)[C@H]3[C@H](C)O4)c12 [Example 129] have F greater than or equal to 7%?
output: Condition not met

----------
assay: Pharmacokinetic determination in rats (IV and PO, plasma, LCMS/MS); type: in vivo, SD rats; conditions: male, SD, rat, in vivo, iv, 1 mg/kg
quantity.kind: AUC (ng·h/mL)
Give the number; ng·h/mL is assumed, so skip it.

input: Report measured AUC; entry is C#Cc1c(F)ccc2cc(O)cc(-c3ncc4c(N5CC6CCC(C5)N6)nc(OC[C@@]56CCCN5C[C@H](F)C6)nc4c3F)c12 [MRTX-1133, reference compound]
output: 367

----------
Assay: Pharmacokinetic determination in mice (IV and PO, plasma, LCMS/MS)
Format: in vivo, Balb/c mice
Details: mouse, in vivo; PO, 30 mg/kg, male Balb/c mice, overnight fasting, plasma; read-out: Tmax
Description: • 1. Study objective: Balb/c mice were used as test animals to study the pharmacokinetic behavior of the compounds in mice (plasma) after oral administration. • 2. […]
Listed compounds paired with reported Tmax
A bare number is not enough; add the unit after it.

| mol.smiles | Tmax |
| --- | --- |
| CON=C1CCN(CC2(COc3nc4c5c(nc(-c6cc(N)cc(Cl)c6C(F)(F)F)c(F)c5n3)O[C@@H](C)[C@@H]3[C@@H]5CC[C@H](CN43)N5)CC2)CC1 | 1 h |

input: Quick one: give measured Tmax for C#Cc1c(F)ccc2cc(O)cc(-c3nc4c5c(nc(OCC6(CN7CCC(=C(F)F)CC7)CC6)nc5c3F)N3C[C@H]5CC[C@H](N5)[C@H]3CO4)c12
output: 0.5 h

input: Indicate the recorded Tmax value for this compound: [2H]C([2H])([2H])[C@@H]1Oc2nc(-c3cc(N)cc(Cl)c3C(F)(F)F)c(F)c3nc(OCC4(CN5CCC(=NOC)CC5)CC4)nc(c23)N2C[C@H]3CC[C@H](N3)[C@@H]12
output: 1 h
